// data source = patent US5463073A

biological target: angiotensin II (A-II) receptor (Bos taurus); construct: membrane fraction was prepared from bovine adrenal cortex; from tissue; host or cells: bovine adrenal cortex membrane fraction; experiment: Inhibition of binding of angiotensin II to angiotensin II receptor (radioreceptor assay, 125I-A-II, bovine adrenal cortex membrane fraction); settings: 10^-6 M, room temperature, 1 h
Sequence (P25104 whole entry): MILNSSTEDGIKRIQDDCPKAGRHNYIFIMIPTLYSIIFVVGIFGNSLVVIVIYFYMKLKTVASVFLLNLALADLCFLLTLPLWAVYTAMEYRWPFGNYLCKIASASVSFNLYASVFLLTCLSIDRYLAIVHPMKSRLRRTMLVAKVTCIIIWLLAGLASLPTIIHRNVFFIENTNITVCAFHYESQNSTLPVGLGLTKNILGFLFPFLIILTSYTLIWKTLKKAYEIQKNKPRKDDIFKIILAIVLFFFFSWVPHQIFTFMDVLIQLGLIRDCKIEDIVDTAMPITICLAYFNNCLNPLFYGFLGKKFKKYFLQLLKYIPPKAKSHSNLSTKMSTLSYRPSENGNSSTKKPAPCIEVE
# label = 1 if inhibition at 1 µM >= 80% else 0

# compound, label-class
records = [
    ("CCCCSc1nc2c(C)sc(C(=O)O)c2n1Cc1ccc(-c2ccccc2-c2nn[nH]n2)cc1 [Working Example 18]", 0),
]

Does the reported inhibition at 1 µM for CCCOc1nc2c(C)sc(C(=O)O)c2n1Cc1ccc(-c2ccccc2-c2nn[nH]n2)cc1 [compound 30] fall at or above the 80% mark?
0

Determine whether this compound has inhibition at 1 µM no lower than 80%: CCSc1nc2csc(C(=O)O)c2n1Cc1ccc(-c2ccccc2-c2nnn[nH]2)cc1 [Working Example 22]
1

Confirm if inhibition at 1 µM reported for the compound CCNc1nc2c(C)sc(C(=O)O)c2n1Cc1ccc(-c2ccccc2-c2nn[nH]n2)cc1 [compound 31] is 80% or above.
0

Does inhibition at 1 µM meet or surpass 80% for CCOc1nc2c(C)sc(C(=O)O)c2n1Cc1ccc(-c2ccccc2-c2nn[nH]n2)cc1 [compound 29] ?
0

Exam item: decide whether the reported inhibition at 1 µM for COC(=O)c1sc(C)c2nc(SC)n(Cc3ccc(-c4ccccc4-c4nn[nH]n4)cc3)c12 [compound 7] is at least 80%.
0

Is reported inhibition at 1 µM greater than or equal to 80% here: COc1nc2c(C)sc(C(=O)OCOC(C)=O)c2n1Cc1ccc(-c2ccccc2-c2nn[nH]n2)cc1 [compound 36]
1

Record Cc1sc(C(=O)O)c2c1nc(SC(C)C)n2Cc1ccc(-c2ccccc2-c2nnn[nH]2)cc1 [Working Example 17] ; criterion: inhibition at 1 µM no lower than 80%. Met?
0

Can CCSc1nc2c(C)sc(C(=O)O)c2n1Cc1ccc(-c2ccccc2-c2nn[nH]n2)cc1 [compound 2] be said to have inhibition at 1 µM at or above 80%?
0

Kindly determine if inhibition at 1 µM recorded for CCSc1nc2c(C)sc(C(=O)OC)c2n1Cc1ccc(-c2ccccc2-c2nn[nH]n2)cc1 [compound 1] is above or exactly 80%.
1

Is inhibition at 1 µM at least 80%? Consider CCSc1nc2c(C)sc(C(=O)OCOC(=O)C(C)(C)C)c2n1Cc1ccc(-c2ccccc2-c2nn[nH]n2)cc1 [compound 5]
1

Form field: inhibition at 1 µM at least 80%? Entry: CSc1nc2c(C)sc(C(=O)O)c2n1Cc1ccc(-c2ccccc2-c2nn[nH]n2)cc1 [Working Example 15]
0

Exam item: decide whether the reported inhibition at 1 µM for COc1nc2c(C)sc(C(=O)O)c2n1Cc1ccc(-c2ccccc2-c2nn[nH]n2)cc1 [compound 28] is at least 80%.
0

Could you tell me if the measured inhibition at 1 µM of CCSc1nc2c(C)sc(C(=O)OC(C)OC(=O)OC3CCCCC3)c2n1Cc1ccc(-c2ccccc2-c2nn[nH]n2)cc1 (centres unmarked) [compound 6] reaches 80% or more?
1
